- System: Streptomyces scabiei CGMCC 4.1765
- assay: Inhibition-zone assay (CL)
- Type: cell-based
- settings: SSCA CGMCC 4.1765, N.A. = no activity at 0.8 nmol peptide each well
Ends that are not written are not given here.
Each item that follows carries a reported Lethal concentration (CL).
measurement-name: Lethal concentration (CL) (µM)

{"substance": "FLFSLIPSAISGLISAFK-NH2 [MeuFSPL-1]", "measurement-name": "Lethal concentration (CL)", "recorded-result": 1.77}
{"substance": "FFGHLFKLATKIIPSLFQ [MUC-18, reference compound]", "measurement-name": "Lethal concentration (CL)", "recorded-result": 4.45}
{"substance": "FLFSLIPSAISGLISAFKGRRKRDLN-NH2 [MarMEL]", "measurement-name": "Lethal concentration (CL)", "recorded-result": 1.56}
{"substance": "FLFSLIPSAISGLINAFK-NH2 [MeuFSPL-2]", "measurement-name": "Lethal concentration (CL)", "recorded-result": 7.75}
{"substance": "IFGAIAGLLKNIF-NH2 [MUC-13, reference compound]", "measurement-name": "Lethal concentration (CL)", "recorded-result": 15.07}

---

- System: Staphylococcus aureus J706
- assay: Inhibition-zone assay (CL)
- Type: cell-based
- settings: SA J706, N.A. = no activity at 0.8 nmol peptide each well
Ends that are not written are not given here.
measurement-name: Lethal concentration (CL) (µM)

{"substance": "FLFSLIPSAISGLISAFK-NH2 [MeuFSPL-1]", "target-system": "Staphylococcus aureus J706", "measurement-name": "Lethal concentration (CL)", "recorded-result": 10.92}
{"substance": "IFGAIAGLLKNIF-NH2 [MUC-13, reference compound]", "target-system": "Staphylococcus aureus J706", "measurement-name": "Lethal concentration (CL)", "recorded-result": 5.67}
{"substance": "FLFSLIPSAISGLINAFK-NH2 [MeuFSPL-2]", "target-system": "Staphylococcus aureus J706", "measurement-name": "Lethal concentration (CL)", "recorded-result": 7.04}
{"substance": "FFGHLFKLATKIIPSLFQ [MUC-18, reference compound]", "target-system": "Staphylococcus aureus J706", "measurement-name": "Lethal concentration (CL)", "recorded-result": 4.86}
{"substance": "FLFSLIPSAISGLISAFKGRRKRDLN-NH2 [MarMEL]", "target-system": "Staphylococcus aureus J706", "measurement-name": "Lethal concentration (CL)", "recorded-result": 8.41}

---

- Tested on: Staphylococcus warneri ATCC 1.2824
- assay: Inhibition-zone assay (CL)
- Type: cell-based
- settings: SW ATCC 1.2824, N.A. = no activity at 0.8 nmol peptide each well
Ends that are not written are not given here.
# note: exactly 4 µM is not below, so it is no (0); use yes (1) for Lethal concentration (CL) strictly under it

{"substance": "FFGHLFKLATKIIPSFFRRKNQ [MAC-22]", "group-label": "no (0)"}
{"substance": "IFGAIAGLLKNIF-NH2 [MUC-13, reference compound]", "group-label": "no (0)"}
{"substance": "FLFSLIPSAISGLINAFK-NH2 [MeuFSPL-2]", "group-label": "no (0)"}
{"substance": "FLFSLIPSAISGLISAFKGRRKRDLN-NH2 [MarMEL]", "group-label": "yes (1)"}
{"substance": "FFGHLFKLATKIIPSLFQRKKE [MUC-22]", "group-label": "yes (1)"}
{"substance": "FLFSLIPSAISGLISAFK-NH2 [MeuFSPL-1]", "group-label": "yes (1)"}
{"substance": "FFGHLFKLATKIIPSLFQ [MUC-18, reference compound]", "group-label": "no (0)"}

---

The following substances are shown together with reported Lethal concentration (CL) values.
- Tested on: methicillin-sensitive Staphylococcus aureus CGMCC 1.89
- assay: Inhibition-zone assay (CL)
- Format: cell-based
- settings: MSSA CGMCC 1.89, N.A. = no activity at 0.8 nmol peptide each well
Ends that are not written are not given here.
measurement-name: Lethal concentration (CL)

{"substance": "FLFSLIPSAISGLISAFKGRRKRDLN-NH2 [MarMEL]", "recorded-result": "4.87 µM"}
{"substance": "FFGHLFKLATKIIPSLFQ [MUC-18, reference compound]", "recorded-result": "0.87 µM"}
{"substance": "FFGHLFKLATKIIPSFFRRKNQ [MAC-22]", "recorded-result": "1.35 µM"}
{"substance": "FFGHLFKLATKIIPSLFQRKKE [MUC-22]", "recorded-result": "1.35 µM"}
{"substance": "IFGAIAGLLKNIF-NH2 [MUC-13, reference compound]", "recorded-result": "10.24 µM"}
{"substance": "FLFSLIPSAISGLISAFK-NH2 [MeuFSPL-1]", "recorded-result": "5.27 µM"}
{"substance": "FLFSLIPSAISGLINAFK-NH2 [MeuFSPL-2]", "recorded-result": "3.14 µM"}

---

Consider the following substances and their measured Lethal concentration (CL) readings.
- Tested on: Pseudomonas aeruginosa 11092304
- assay: Inhibition-zone assay (CL)
- Assay type: cell-based
- settings: PA 11092304, N.A. = no activity at 0.8 nmol peptide each well
Ends that are not written are not given here.

{"substance": "FFGHLFKLATKIIPSLFQRKKE [MUC-22]", "unit-symbol": "µM", "Lethal concentration (CL)": 10.02}
{"substance": "FFGHLFKLATKIIPSLFQ [MUC-18, reference compound]", "unit-symbol": "µM", "Lethal concentration (CL)": 31.40}
{"substance": "FFGHLFKLATKIIPSFFRRKNQ [MAC-22]", "unit-symbol": "µM", "Lethal concentration (CL)": 24.82}
{"substance": "FLFSLIPSAISGLISAFKGRRKRDLN-NH2 [MarMEL]", "unit-symbol": "µM", "Lethal concentration (CL)": 24.95}

---

- Test system: Staphylococcus aureus J685
- assay: Inhibition-zone assay (CL)
- Assay type: cell-based
- settings: SA J685, N.A. = no activity at 0.8 nmol peptide each well
Ends that are not written are not given here.
Classification field: enter true for Lethal concentration (CL) values not below 9 µM, false for values below it.

{"substance": "FLFSLIPSAISGLINAFK-NH2 [MeuFSPL-2]", "group-label": "false"}
{"substance": "FLFSLIPSAISGLISAFKGRRKRDLN-NH2 [MarMEL]", "group-label": "false"}
{"substance": "FFGHLFKLATKIIPSFFRRKNQ [MAC-22]", "group-label": "false"}
{"substance": "FFGHLFKLATKIIPSLFQRKKE [MUC-22]", "group-label": "false"}
{"substance": "IFGAIAGLLKNIF-NH2 [MUC-13, reference compound]", "group-label": "true"}
{"substance": "FLFSLIPSAISGLISAFK-NH2 [MeuFSPL-1]", "group-label": "true"}
{"substance": "FFGHLFKLATKIIPSLFQ [MUC-18, reference compound]", "group-label": "false"}

---

- Test system: methicillin-resistant Staphylococcus aureus P1386
- assay: Inhibition-zone assay (CL)
- Type: cell-based
- settings: MRSA P1386, N.A. = no activity at 0.8 nmol peptide each well
Ends that are not written are not given here.
Cut-off 2 µM on Lethal concentration (CL), inclusive. At or above means YES; below means NO.

{"substance": "FLFSLIPSAISGLISAFKGRRKRDLN-NH2 [MarMEL]", "group-label": "YES"}
{"substance": "FFGHLFKLATKIIPSLFQ [MUC-18, reference compound]", "group-label": "NO"}
{"substance": "FFGHLFKLATKIIPSFFRRKNQ [MAC-22]", "group-label": "NO"}
{"substance": "FLFSLIPSAISGLINAFK-NH2 [MeuFSPL-2]", "group-label": "YES"}
{"substance": "FFGHLFKLATKIIPSLFQRKKE [MUC-22]", "group-label": "NO"}
{"substance": "FLFSLIPSAISGLISAFK-NH2 [MeuFSPL-1]", "group-label": "YES"}

---

- Test system: Pseudomonas aeruginosa 11092618
- assay: Inhibition-zone assay (CL)
- Assay type: cell-based
- settings: PA 11092618, N.A. = no activity at 0.8 nmol peptide each well
Ends that are not written are not given here.
Catalogue of Lethal concentration (CL) values

{"substance": "FFGHLFKLATKIIPSFFRRKNQ [MAC-22]", "target-system": "Pseudomonas aeruginosa 11092618", "Lethal concentration (CL) / µM": 19.08}
{"substance": "FLFSLIPSAISGLISAFKGRRKRDLN-NH2 [MarMEL]", "target-system": "Pseudomonas aeruginosa 11092618", "Lethal concentration (CL) / µM": 8.41}
{"substance": "FFGHLFKLATKIIPSLFQRKKE [MUC-22]", "target-system": "Pseudomonas aeruginosa 11092618", "Lethal concentration (CL) / µM": 6.10}
{"substance": "FFGHLFKLATKIIPSLFQ [MUC-18, reference compound]", "target-system": "Pseudomonas aeruginosa 11092618", "Lethal concentration (CL) / µM": 31.40}
